The reported numbers originate from the supplement of paper PMC5908809.

system: IMC-1 (IL-2 20 ng/mL); assay: percent inhibition of viability; higher = more inhibition; details: 72 h; 1 nM;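 also: normalised to DMSO-only wells as negative and benzethonium chloride as positive control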

{"columns": ["COMPOUND", "U", "percent inhibition of viability"],
 "data": [
  ["N#CC[C@H](C1CCCC1)n1cc(-c2ncnc3[nH]ccc23)cn1 [Ruxolitinib] (max concentration tested 10000 nM)", "%", 1.77],
  ["Cc1cc(C)c(CNC(=O)c2cc(-c3ccc(CN4CCOCC4)cc3)cc3c2cnn3C2CCCC2)c(=O)[nH]1 [EPZ-5687] (max concentration tested 10000 nM)", "%", -4.92],
  ["N#Cc1ccc(COC[C@H]2O[C@@H](n3c(NCc4ccc(Cl)c(Cl)c4)nc4c(N)ncnc43)[C@H](O)[C@@H]2O)cc1 (max concentration tested 10000 nM)", "%", -1.92],
  ["CN(C)CCOc1ccc(/C(=C(/CCCl)c2ccccc2)c2ccccc2)cc1 [Toremifene] (max concentration tested 10000 nM)", "%", -0.16],
  ["CN(C)C1CCN(C(=O)c2ccc(NC(=O)Nc3ccc(-c4nc(N5CCOCC5)nc(N5CCOCC5)n4)cc3)cc2)CC1 [Gedatolisib] (max concentration tested 1000 nM)", "%", 4.03],
  ["Cc1ccccc1C(C(=O)NC1CCCCC1)N(C(=O)Cn1ccnc1C)c1cccc(F)c1 (configuration not stated) [AGI-5198] (max concentration tested 10000 nM)", "%", -3.01],
  ["Cc1cc(C)c(/C=C2\\C(=O)Nc3ccccc32)[nH]1 [Semaxanib] (max concentration tested 10000 nM)", "%", -3.23],
  ["COc1cc2/c(=N/c3ccc(Br)cc3F)nc[nH]c2cc1OCC1CCN(C)CC1 [Vandetanib] (max concentration tested 1000 nM)", "%", -1.11],
  ["COc1cc2c(NC3CCN(C(C)C)CC3)nc(N3CCC(F)(F)CC3)nc2cc1OCCCN1CCCC1 [UNC0642] (max concentration tested 10000 nM)", "%", -11.9],
  ["Nc1nc2[nH]cc(CCc3ccc(C(=O)N[C@@H](CCC(=O)O)C(=O)O)cc3)c2c(=O)[nH]1 [Pemetrexed] (max concentration tested 10000 nM)", "%", -2.55],
  ["Nc1nc(N)c2nc(-c3cccc(O)c3)c(-c3cccc(O)c3)nc2n1 [TG100-115] (max concentration tested 10000 nM)", "%", -0.94],
  ["C[C@@H](Oc1cc(-n2cnc3ccc(CN4CCN(C)CC4)cc32)sc1C(N)=O)c1ccccc1C(F)(F)F (max concentration tested 10000 nM)", "%", -5.44]
]}

* * *

system: normal primary NK cells, pool 2 (3 donors) (IL-2 2.5 ng/mL); assay: percent inhibition of viability; higher = more inhibition; conditions: 72 h; 1 nM
The following compounds are listed with their measured percent inhibition of viability values.
MEASURED_ATTRIBUTE: percent inhibition of viability (%)

{"columns": ["COMPOUND", "SYSTEM_TESTED", "U", "TEST_VALUE"],
 "data": [
  ["Nc1ccn([C@@H]2O[C@H](CO)[C@@H](O)[C@@H]2O)c(=O)n1 [Cytarabine] (max concentration tested 10000 nM)", "normal primary NK cells, pool 2 (3 donors) (IL-2 2.5 ng/mL)", "%", -14.2],
  ["C[C@]1(c2nc3c(C(N)=O)cccc3[nH]2)CCCN1 [Veliparib] (max concentration tested 10000 nM)", "normal primary NK cells, pool 2 (3 donors) (IL-2 2.5 ng/mL)", "%", -7.51],
  ["CS(=O)(=O)c1ccc(C(=O)Nc2ccc(Cl)c(-c3ccccn3)c2)c(Cl)c1 [Vismodegib] (max concentration tested 10000 nM)", "normal primary NK cells, pool 2 (3 donors) (IL-2 2.5 ng/mL)", "%", -4.51],
  ["CNC(=O)c1cc(Oc2ccc(NC(=O)Nc3ccc(Cl)c(C(F)(F)F)c3)c(F)c2)ccn1 [Regorafenib] (max concentration tested 10000 nM)", "normal primary NK cells, pool 2 (3 donors) (IL-2 2.5 ng/mL)", "%", -10.1],
  ["O=C(Nc1ccc(-c2ccnc(Nc3ccc(N4CCOCC4)cc3)n2)cc1)C1CCCN1 (stereo unspecified) [XL019] (max concentration tested 10000 nM)", "normal primary NK cells, pool 2 (3 donors) (IL-2 2.5 ng/mL)", "%", -2.68],
  ["CCc1cncnc1N1CCN(Cc2nc3ccc(C(F)(F)F)cc3[nH]2)CC1 (max concentration tested 10000 nM)", "normal primary NK cells, pool 2 (3 donors) (IL-2 2.5 ng/mL)", "%", -7.09]
]}
